experiment: Acute toxicity in po dosed mouse; format: organism-based; conditions: in vivo
Measured Parameter: LD50 (mg/kg)
Report only the number, with the unit mg/kg understood.

Query: Fill blank: measured LD50 of the molecule `C=C1[C@@H](O)[C@@]2(O)OC[C@]34[C@H]2[C@@]2(C)[C@H](O)C(=O)C=C(C)[C@@H]2C[C@H]3OC(=O)[C@H](O)[C@@]14O` is ____.
Result: 50

###

Task for the reader: assign each of the following compounds its reported LC50.
assay: Toxicity against brine shrimp; assay type: organism-based; details: artemia, in vivo; read-out: LD50 (the source's name)
Report only the number, with the unit µg/mL understood.

Query: Fill blank: measured LC50 of the compound CC1=CC(=O)[C@@H](O)[C@@]2(C)[C@H]1[C@@H](O)[C@H]1OC(=O)C3[C@@H](C)[C@H](O)[C@H](O)[C@H]2[C@]31C (some centres undefined) is ____.
Result: 145

Query: Fill blank: measured LC50 of the compound `C=C1[C@@H](O)[C@@]2(O)OC[C@]34[C@H]2[C@@]2(C)[C@H](O)C(=O)C=C(C)[C@@H]2C[C@H]3OC(=O)[C@H](O)[C@@]14O` is ____.
Result: 3.5

Query: Fill blank: measured LC50 of the compound `CC1=CC(=O)[C@@H](O)[C@]2(C)[C@H]3[C@@]4(O)OC[C@@]35[C@@H](C[C@@H]12)OC(=O)[C@H](O)[C@@]5(O)[C@@H](C)[C@H]4O` is ____.
Result: 10.3

Query: Fill blank: measured LC50 of the compound `CC1=CC(=O)[C@@H](O)[C@]2(C)[C@H]3[C@@H](O)[C@H](O)[C@H](C)[C@]4(O)[C@@H](O)C(=O)O[C@H](C[C@@H]12)[C@]34C` is ____.
Result: 324

###

species: Homo sapiens; assay: Inhibition of NF-kappaB activity in TNF-alpha stimulated human HEK-293/NF-kB-luc cells at 30 uM incubated for 30 mins prior to TNF-alpha challenge for 4 hrs by luciferase reporter gene assay
Measured Parameter: inhibition

Query: Fill blank: measured inhibition of the compound `COC(=O)c1nccc2c1[nH]c1ccccc12` is ____.
Result: > 50%

Query: Fill blank: measured inhibition of the compound `CC1=CC(=O)[C@@H](O)[C@]2(C)[C@H]3C(=O)[C@H](O)[C@H](C)[C@@H]4CC(=O)O[C@H](C[C@@H]12)[C@]34C` is ____.
Result: > 50%

Query: Fill blank: measured inhibition of the compound `CC1=CC(=O)[C@@H](O)[C@@]2(C)[C@H]1CC(=O)[C@@]1(C)[C@H]3C(=O)O[C@H]([C@@H]3C)[C@H](O)[C@@H]12` is ____.
Result: > 50%
